inhibition overview
- PROTOCOL_DESCRIPTION: M. tuberculosis H37Rv growth inhibitors, H37Rv strain (AID 1626);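 further: bacteria incubated seven days before Alamar blue readout; 0% = bacteria only wells and 100% = bacteria with antibiotic wells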
- CONDITION_LABEL: stronger effect = higher value, concentration not given here
In all, about 220,000 compounds went through this assay and about 2,000 (0.91%) were called active. Not shown: some 2% with an inconclusive outcome. The list is a sample of the results. Potency and affinity values are given separately.

{"COMPOUND": "Cc1cc(N2CCN(c3ccccc3)CC2)nc(N)n1", "RESULT_VALUE": "-2.3% (inactive)"}
{"COMPOUND": "CCN1CCN(c2nc(N)c([N+](=O)[O-])c(Nc3ccc(C)c(C)c3)n2)CC1", "RESULT_VALUE": "51.5% (inactive)"}
{"COMPOUND": "O=C(c1ccco1)N1CCN(c2ccc(S(=O)(=O)N3CCCC3)cc2)CC1", "RESULT_VALUE": "-12.6% (inactive)"}
{"COMPOUND": "N#CCCN(C(=O)CCl)c1cccc(Cl)c1", "RESULT_VALUE": "32.5% (inactive)"}

Problem: Give its inhibition value. Item: Cc1ccc(NC(C)c2cc(Cl)ccc2O)cc1 (configuration not stated)
Result: -1.72% (inactive)

Problem: Now this one: CC(C)N(C(=O)CC1ON(C)C(=O)N1c1ccc(Cl)cc1)C(C)C (configuration not stated)
Result: -4.4% (inactive)

Problem: // next record COc1cc(OC)c2ccc(=O)oc2c1C(CCN1CCCC1)c1ccc(N(C)C)cc1 (configuration not stated)
Result: -8.24% (inactive)

Problem: Could you do the same for `COc1ccc(CNc2nc3ccccc3n2CCN2CCCCC2)cc1` , please?
Result: -0.5% (inactive)

Problem: Also check `COc1ccc(Nc2cccccc2=O)cc1`
Result: 1.3% (inactive)

Problem: Entry to check: `Cc1cc(C)n(-c2nc3ccccc3nc2N2CCC(C)CC2)n1`
Result: 2.59% (inactive)

Problem: Try Cc1noc(C)c1S(=O)(=O)N1CCCC(C(=O)c2cccc(OC(C)C)c2)C1 (configuration not stated) next.
Result: 0% (inactive)

* * *

- PROTOCOL_DESCRIPTION: M. tuberculosis H37Rv growth inhibitors, H37Rv strain (AID 1626);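 further: bacteria incubated seven days before Alamar blue readout; 0% = bacteria only wells and 100% = bacteria with antibiotic wells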
- CONDITION_LABEL: stronger effect = higher value, concentration not given here
Hit rate of the full screen: of about 220,000 compounds, about 2,000 (0.91%) were called active. Another 2% or so got no clear call; they are omitted. Not all results are given here. Results with a measured potency or affinity are listed apart.
READOUT_KIND: inhibition (%)
Numbers only; they are read as %.

// worked examples, inhibition included
{"COMPOUND": "COc1ccc(CNC(=O)COC(=O)c2ccc(Br)cc2)cc1", "READOUT_UNIT": "%", "inhibition": 5.06}
{"COMPOUND": "CC(=O)Nc1ccc2ccccc2c1", "READOUT_UNIT": "%", "inhibition": 12.4}
{"COMPOUND": "CCOC(=O)Cn1nc(C)n(-c2ccc(C(C)C)cc2)c1=O", "READOUT_UNIT": "%", "inhibition": 1.38}

Problem: Entry CCc1cc(C(c2cccc(OC)c2)N2CCOCC2)c(NC(=O)c2ccccc2)s1 (stereo not drawn) : reported inhibition = ?
Result: 2.32

Problem: Then `CCCOCCc1nnc(N)s1` ?
Result: 1.89

Problem: Could you do the same for `O=C(NCc1cccc(Cl)c1)c1cc(COc2ccc3ncccc3c2)on1` , please?
Result: 58.2

Problem: Also, `CCCn1cnc2c(N)c(C)c(C)cc21` please.
Result: -8.86

Problem: Record: `CCOC(=O)CS(=O)(=O)c1ccc2ccccc2c1`
Result: -12.2

Problem: Try the compound `CC(=O)CC(=O)Nc1ccc(Nc2ccccc2)cc1`
Result: 6.81
